So I've got a bunch of compounds here, and I need their Henry solubility constant Hcp at 296 K values.
test: Henry solubility constant Hcp at 296 K (mol/(m3 Pa)); details: reference: Fendinger et al. (1989)
Give bare numbers.

>>> experimental_value("ClC1=C(Cl)[C@]2(Cl)C3C(Cl)C(Cl)CC3[C@@]1(Cl)C2(Cl)Cl (stereo not given in full)")
0.18
>>> experimental_value("ClC1C(Cl)C(Cl)C(Cl)C(Cl)C1Cl (stereo not given)")
4.9
>>> experimental_value("CCOP(=S)(OCC)Oc1cc(C)nc(C(C)C)n1")
84
>>> experimental_value("CCCN(CCC)c1c([N+](=O)[O-])cc(C(F)(F)F)cc1[N+](=O)[O-]")
0.19

Entry Clc1ccc(C(c2ccc(Cl)cc2)C(Cl)(Cl)Cl)cc1 — recorded Henry solubility constant Hcp at 296 K = 0.77

---

test: Henry solubility constant Hcp at 298.15 K (mol/(m3 Pa)); conditions: reference: Ji and Evans (2007)
Output Yes for Henry solubility constant Hcp not less than 0.2; output No otherwise.

# count of solved cases: 5
>>> assigned_class("CC(C)=O [propanone]")
"Yes"
>>> assigned_class("CCCC(C)=O [2-pentanone]")
"No"
>>> assigned_class("CCC(=O)CC [3-pentanone]")
"No"
>>> assigned_class("CCCC=O [butanal]")
"No"
>>> assigned_class("C=CC(C)=O [3-buten-2-one]")
"Yes"

Q: Does Henry solubility constant Hcp meet or surpass 0.2 for CC#N [ethanenitrile] ?
Result: Yes

Q: Hello, I need to know if CCCCC=O [pentanal] has measured Henry solubility constant Hcp not below 0.2. Thanks!
Result: No

---

test: Henry solubility constant Hcp at 298.15 K (mol/(m3 Pa)); conditions: reference: Charles and Destaillats (2005)
readout-kind: Henry solubility constant Hcp
Give bare numbers.

# annotated cases, reported Henry solubility constant Hcp shown
>>> experimental_value("Clc1ccc(-c2cc(Cl)c(Cl)cc2Cl)cc1Cl [2,3',4,4',5-pentachlorobiphenyl]")
0.018
>>> experimental_value("Brc1ccc(Oc2cc(Br)c(Br)c(Br)c2Br)cc1 [2,3,4,4',5-pentabromodiphenyl ether]")
0.88
>>> experimental_value("Brc1ccc(Oc2c(Br)cc(Br)cc2Br)c(Br)c1 [2,2',4,4',6-pentabromodiphenyl ether]")
0.19
>>> experimental_value("Brc1ccc(Oc2ccc(Br)cc2)cc1 [4,4'-dibromodiphenyl ether]")
0.073
>>> experimental_value("Brc1ccc(Oc2ccccc2)cc1 [4-bromodiphenyl ether]")
0.058

Respectfully, I request Henry solubility constant Hcp for each entry included below.
1. Clc1ccc(-c2cc(Cl)c(Cl)cc2Cl)c(Cl)c1 [2,2',4,4',5-pentachlorobiphenyl]
2. Brc1ccc(Oc2ccc(Br)cc2Br)cc1 [2,4,4'-tribromodiphenyl ether]

Result:
[0.0088, 0.12]

---

Exercise: for every item that follows, state its recorded Henry solubility constant Hcp.
test: Henry solubility constant Hcp at 298.15 K (mol/(m3 Pa)); conditions: reference: Ervin et al. (1980)
Numbers only.

Worked examples follow.
>>> experimental_value("ClC(Br)Br")
0.0085
>>> experimental_value("Cc1ccccc1")
0.0015
>>> experimental_value("CC(Cl)(Cl)Cl")
0.00027
>>> experimental_value("C=C(Cl)Cl")
0.00014
>>> experimental_value("Clc1ccccc1")
0.0029
>>> experimental_value("c1ccccc1")
0.0012

Kindly review the next compound as well.
Value of Henry solubility constant Hcp reported for the compound ClC(Cl)Br is 0.0035
